Hello, the source for this data is patent US20190262327A1, in case you need it.

// kon lookup, one value per entry
# system: T1, biotinylated synthetic human Amyloid beta 1-42 peptide (human, UniProt P05067 672-713, biotinylated (N-terminal biotin in Example 4))
# T1 construct: domain: Amyloid beta 1-42 peptide; Numbers 1-42 count on the Amyloid beta peptide, not on APP; also called biotinylated human Amyloid beta 1-42; N-terminal biotin Abeta 1-42
# T1 sequence (P05067 672-713 limits assumed): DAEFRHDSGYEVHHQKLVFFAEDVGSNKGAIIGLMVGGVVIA
# experiment_notes: SPR (ProteOn); biotinylated peptide on streptavidin chip, scFv in solution
measure: kon (M⁻¹ s⁻¹)

1) Abet0374 scFv (scFv, V domains shown, not shown: small tags and cut ends, Purified scFv expressed in E. coli) VH: EVQLLESGGGLVQPGGSLRLSCAASGFQFKDTPMWWVRQAPGKGLEWVSVIGDQNHKKAYADSVKGRFTISRDNSKNTLYLQMNSLRAEDTAVYYCAREWMDHSRPYYYYGMDAWGQGTLVTVSS VL: SYELTQPPSVSVTPGQTASITCSGHNLGGKFASWYQQKPGQSPVLVIYRDDKRPSGIPERFSASNFGHTATLTISGTQATDEADYYCSSQDTVTRVFGGGTKLTVL :: 256000
2) Abet0321b scFv (scFv, V domains shown, not shown: small tags and cut ends, Purified scFv expressed in E. coli) VH: EVQLLESGGGLVQPGGSLRLSCAASAYHSNHDPMWWVRQAPGKGLEWVSVIGSSGGTTAYADSVKGRFTISRDNSKNTLYLQMNSLRAEDTAVYYCAREWMDHSRPYYYYGMDVWGQGTLVTVSS VL: SYELTQPPSVSVSPGQTASITCSGHNLEDKFASWYQQKPGQSPVLIIYRDDKRPSGIPERFSASNSGHTATLTISGTQATDEADYYCSSQDTVTRVFGGGTKLTVL :: 150000
